Assay procedure: activity coefficient (dimensionless); of the first substance listed, at infinite dilution; xn = mol fraction of the nth substance listed
Applied conditions: 329.97 K; Liquid; Chromatography; x1 = 0
Readout kind: activity coefficient
Give bare numbers.

Molecule | activity coefficient
CCC [propane] + C1CCOCC1 | 1.79
C=CC=C [1,3-butadiene] + C1CCOCC1 | 1.09

Please report activity coefficient for every entry that follows.
1. C=C(C)C [2-methylpropene] + C1CCOCC1
2. CC(F)F [1,1-difluoroethane] + C1CCOCC1
3. C=CC [propene] + C1CCOCC1
4. C/C=C/C [(E)-2-butene] + C1CCOCC1
5. CCCC [butane] + C1CCOCC1
6. CC(C)C [2-methylpropane] + C1CCOCC1

*A*
[1.37, 1.66, 1.44, 1.4, 1.72, 1.82]

====

Assay procedure: activity coefficient (dimensionless); of the first substance listed, at infinite dilution; xn = mol fraction of the nth substance listed
Applied conditions: 309.98 K; Liquid; Chromatography; x1 = 0
Hi there, I'd appreciate the recorded activity coefficient for every entry that follows.
Numbers only.

Compound | activity coefficient
C=CC=C [1,3-butadiene] + C1CCOCC1 | 1.05
CCCl [chloroethane] + C1CCOCC1 | 0.94

Please report activity coefficient for every entry that follows.
1. CCC [propane] + C1CCOCC1
2. CC(F)F [1,1-difluoroethane] + C1CCOCC1
3. C=C(C)C [2-methylpropene] + C1CCOCC1

*A*
1.84
1.69
1.38

Please report activity coefficient for every entry that follows.
1. COC [dimethyl ether] + C1CCOCC1
2. CCCCCC [hexane] + C1CCOCC1
3. CCCC [butane] + C1CCOCC1
4. C/C=C/C [(E)-2-butene] + C1CCOCC1
5. C/C=C\C [(Z)-2-butene] + C1CCOCC1
6. C=CC [propene] + C1CCOCC1
7. CC(C)C [2-methylpropane] + C1CCOCC1

*A*
[1.26, 1.67, 1.78, 1.4, 1.31, 1.44, 1.88]

====

Assay procedure: activity coefficient (dimensionless); of the first substance listed, at infinite dilution; xn = mol fraction of the nth substance listed
Applied conditions: 250.06 K; Liquid; Chromatography; x1 = 0
Hi there, I'd appreciate the recorded activity coefficient for every entry that follows.
Numbers only.

Please report activity coefficient for every entry that follows.
1. C=CC=C [1,3-butadiene] + C1CCOCC1
2. C=C(C)C [2-methylpropene] + C1CCOCC1
3. C=CC [propene] + C1CCOCC1
4. CC(C)C [2-methylpropane] + C1CCOCC1
5. C/C=C/C [(E)-2-butene] + C1CCOCC1
6. CCC [propane] + C1CCOCC1
7. CC(F)F [1,1-difluoroethane] + C1CCOCC1
8. CCCC [butane] + C1CCOCC1

*A*
1: 0.95; 2: 1.39; 3: 1.42; 4: 2.14; 5: 1.43; 6: 2.08; 7: 1.57; 8: 2.04
